Biological target: RLMs (rat liver microsomes)
Assay: Inhibition of tofacitinib metabolism (M8 formation) in RLMs by furanocoumarins
Conditions: RLMs; substrate tofacitinib
Description: All except NADPH were mixed on ice. Statistical analysis was conducted using Student's t-test.
reported property: Ki (nM)
Report the value in nM with no unit label.

Note to self: Ki recorded for COc1c2ccoc2cc2oc(=O)ccc12 was 443

---

Assay: in vivo
Design: species or system Sprague Dawley rats
Details: male, Sprague-Dawley, rat, po, 10 mg/kg, MRT(0-t)
reported property: MRT last
A complete answer gives the number and then names the unit.

Measured MRT last of C[C@@H]1CCN(C(=O)CC#N)C[C@@H]1N(C)c1ncnc2[nH]ccc12 [tofacitinib, Tofacitinib] : 2.1 h
